Values were extracted from patent US8937091B2.

Test system: IICR (IP3 induced calcium release) in CHO cells
Test: Assay of IICR (IP3 induced calcium release)-inhibiting action
Assay type: cell-based, Chinese hamster
Details: Cricetulus griseus, CHO, test compound 30 μmol; CHO cells, 10 μM ATP; read-out: IICR level (percentage of inhibition)
Reported inhibition at 30 µM values for a set of molecules
Value expressed in %; do not type the unit.

Sample answers from the record:
>>> measured_number("CC(C)N(CCC(=O)c1ccc(Oc2ccccc2)cc1)Cc1ccccc1")
50
>>> measured_number("CCC(CO)(CO)NCCC(=O)c1ccc2c(Cl)cccc2c1")
20

Find inhibition at 30 µM (IICR (IP3 induced calcium release) in CHO cells) for the entry `O=C(CCN(CCO)Cc1ccccc1)c1ccc(Cl)s1` 0

---

Recorded measurements of inhibition at 30 µM, one per entry
System: IICR (IP3 induced calcium release) in CHO cells
Test: Assay of IICR (IP3 induced calcium release)-inhibiting action
Assay type: cell-based, Chinese hamster
Details: Cricetulus griseus, CHO, test compound 30 μmol; CHO cells, 10 μM ATP; read-out: IICR level (percentage of inhibition)

Worked cases, inhibition at 30 µM given:
>>> result("CN(CCC(=O)c1ccc[nH]1)Cc1ccccc1")
"10%"
>>> result("CC(C)N(CCC(=O)c1cc(Cl)sc1Cl)Cc1ccccc1")
"80%"
>>> result("CC(C)N(CCO)CCC(=O)c1ccc(-c2ccccc2)cc1")
"50%"
>>> result("O=C(CCN(CCO)Cc1ccccc1)c1ccncc1")
"10%"
>>> result("CN(CCC(=O)c1nccs1)Cc1ccccc1")
"0%"

May I ask what inhibition at 30 µM has been recorded for `O=C(CCN(CCO)Cc1ccccc1)c1nccs1` ? 60%

---

List of SOCE level (percentage of inhibition) values.
System: SOCE (store operated calcium entry) in CHO cells
Experiment: Assay of SOCE (store operated calcium entry)-inhibiting action
Type: cell-based, Chinese hamster
Settings: test compound 100 μmol; CHO cells, thapsigargin
Report the figure in % without appending any unit label.

For orientation, consider the following solved cases.
>>> measured_number("CC(C)N(CCC(=O)c1ccc(Cc2ccccc2)cc1)Cc1ccccc1 [Example 64]")
30
>>> measured_number("O=C(CCNCCO)c1ccc(Br)s1 [Example 358]")
23
>>> measured_number("O=C(CCNCCO)c1ccc(Br)s1 [Example 307]")
10
>>> measured_number("O=C(CCNCCSSCCNCCC(=O)c1ccsc1)c1ccsc1")
70
>>> measured_number("CN(CCC(=O)c1ccc2ccccc2c1)Cc1ccccc1")
30

Name the reported SOCE level (percentage of inhibition) value associated with the compound `O=C(CCN(CCO)CCO)c1ccco1` 0

Entry `O=C(CCNCCSSCCNCCC(=O)c1ccco1)c1ccco1` has what SOCE level (percentage of inhibition)? 15

Quick check: SOCE level (percentage of inhibition) of `CC(C)N(CCO)CCCC(=O)c1ccccc1` ? 30

---

Test system: IICR (IP3 induced calcium release) in CHO cells
Assay: Assay of IICR (IP3 induced calcium release)-inhibiting action
Format: cell-based, Chinese hamster
Settings: Cricetulus griseus, CHO, test compound 10 μmol; CHO cells, 10 μM ATP; read-out: IICR level (percentage of inhibition)
readout.type: inhibition at 10 µM (%)
// return numeric value only (unit: %, not printed)

These solved cases illustrate the format of a correct answer.
>>> measured_number("CC(CN(CCO)CCO)C(=O)c1ccc(F)cc1 (stereo not shown)")
0
>>> measured_number("COc1ccc(C(=O)CCN(CCO)CCO)cc1")
20
>>> measured_number("NCCSSCCN(CCC(=O)c1ccc(Br)cc1)CCC(=O)c1ccc(Br)cc1")
0
>>> measured_number("NCCN(CCO)CCC(=O)c1ccc(Br)s1")
20
>>> measured_number("CCN(CCC(=O)c1ccc(C)s1)Cc1ccccc1")
20
>>> measured_number("O=C(CCN(CCO)Cc1ccccc1)c1cnccn1")
0
>>> measured_number("CC(CN(CCO)C(C)C)C(=O)c1ccc(F)cc1 (stereo not shown)")
0
>>> measured_number("O=C(CCN(c1ccccc1)c1ccccc1)c1ccccn1")
0
>>> measured_number("CCCCN(CCC(=O)c1ccc(Br)s1)Cc1ccccc1")
0

Given the compound NCC(O)CNCCC(=O)c1ccc(Br)s1 (stereo not shown) , what is its reported inhibition at 10 µM? 50

---

Test system: IICR (IP3 induced calcium release) in CHO cells
Assay: Assay of IICR (IP3 induced calcium release)-inhibiting action
Type: cell-based, Chinese hamster
Details: Cricetulus griseus, CHO, test compound 100 μmol; CHO cells, 10 μM ATP; read-out: IICR level (percentage of inhibition)
List of inhibition at 100 µM values.

# inhibition at 100 µM lookup, item O=C(CCN1CCCCC1CO)c1ccc(Br)s1 (stereo not shown) 70%

Look at this compound and give its reported inhibition at 100 µM. `Cn1cccc1C(=O)CCN(CCO)Cc1ccccc1` 40%

Give its inhibition at 100 µM value. Item: `Cc1cc(C(=O)CCN(Cc2ccccc2)C(C)C)c(C)o1` 0%

What value of inhibition at 100 µM has been recorded for this entry: `CC(C)N(CCC(=O)n1ccnc1)Cc1ccccc1` 0%

Consider the compound `CC(C)N(CCC(=O)c1cc2ccccc2s1)Cc1ccccc1` and give its measured inhibition at 100 µM. 50%

Requested field: inhibition at 100 µM. Item: `Cc1ccsc1C(=O)CCN(Cc1ccccc1)C(C)(C)C` 100%

Can you look up the measured inhibition at 100 µM of `Cc1ccc(C(=O)CCN(Cc2ccccc2)C(C)(C)C)o1` for me? 50%

Please report the recorded inhibition at 100 µM for CC(CN(Cc1ccccc1)C(C)(C)C)C(=O)c1ccc(F)cc1 (stereo not shown) . 0%

---

System: IICR (IP3 induced calcium release) in CHO cells
Experiment: Assay of IICR (IP3 induced calcium release)-inhibiting action
Type: cell-based, Chinese hamster
Conditions: Cricetulus griseus, CHO, test compound 100 μmol; CHO cells, 10 μM ATP; read-out: IICR level (percentage of inhibition)
readout.type: inhibition at 100 µM (%)
Hi! Could you send only the number? It should be in %, unit omitted.

>>> measured_number("Cc1csc(C(=O)CCN(Cc2ccccc2)C(C)(C)C)c1")
100
>>> measured_number("CC(C)(C)N(CCC(=O)c1cc2ccccc2s1)Cc1ccccc1")
60

I'd like to know its inhibition at 100 µM. The molecule in question is COC(=O)C(CSSCC(NCCC(=O)c1cnccn1)C(=O)OC)NCCC(=O)c1cnccn1 (stereo not shown) 28

Data request, read-out inhibition at 100 µM, for `CN(CCC(=O)c1cccnc1)Cc1ccccc1` 80

If you can, please state the reported inhibition at 100 µM value of `C=CCC(=O)c1cccc2ccccc12` . 90

Item `O=C(CCN(Cc1ccccc1)Cc1ccccc1)c1ccc(Br)s1` has what recorded inhibition at 100 µM? 50

# lookup: inhibition at 100 µM of `CC(C)N(CCO)CCC(=O)c1cnccn1` 50

Bench note: what inhibition at 100 µM did `O=C(CCN(CCO)Cc1ccccc1)c1ccc(I)s1` show? 46

GET /values?readout=inhibition at 100 µM&item= `CCN(CCC(=O)c1cnccn1)Cc1ccccc1` 95

So what's the measured inhibition at 100 µM for this one? `CC(C)(C)N(CCC(=O)c1ncccc1Br)Cc1ccccc1` 77

---

Test system: IICR (IP3 induced calcium release) in CHO cells
Test: Assay of IICR (IP3 induced calcium release)-inhibiting action
Format: cell-based, Chinese hamster
Conditions: Cricetulus griseus, CHO, test compound 30 μmol; CHO cells, 10 μM ATP; read-out: IICR level (percentage of inhibition)
readout.type: inhibition at 30 µM (%)
The reply should be a number in %, with the unit left off.

Worked set:
>>> measured_number("O=C(CCN(Cc1ccccc1)Cc1ccccc1)c1ccc(Br)s1 [Example 325]")
20
>>> measured_number("O=C(CCN(CCO)Cc1ccccc1)c1ccc(I)s1 [Example 379]")
24
>>> measured_number("CC(C)N(CCC(=O)c1ccc(C#N)cc1)Cc1ccccc1 [Example 308]")
100
>>> measured_number("CN(CCO)CCC(=O)c1cccs1 [Example 126]")
20
>>> measured_number("O=C(CCN(CCO)CCO)c1nccs1 [Example 143]")
50

Suppose we examine the molecule Cc1cc(C(=O)CCN(Cc2ccccc2)C(C)C)c(C)o1 [Example 221] ; what inhibition at 30 µM value has been reported? 0

---

System: IICR (IP3 induced calcium release) in CHO cells
Assay: Assay of IICR (IP3 induced calcium release)-inhibiting action
Type: cell-based, Chinese hamster
Conditions: Cricetulus griseus, CHO, test compound 30 μmol; CHO cells, 10 μM ATP; read-out: IICR level (percentage of inhibition)
Mark FALSE for inhibition at 30 µM values under 20%, and TRUE for everything at or above.

Example entries and their recorded answers appear below.
>>> discrete_label("CC(C)N(CCO)CCC(=O)c1ccc(Cl)s1")
"FALSE"
>>> discrete_label("O=C(CCNCCN(CCO)CCC(=O)c1cnccn1)c1cnccn1")
"TRUE"
>>> discrete_label("CC(C)N(CCC(=O)c1ccncc1)Cc1ccccc1")
"TRUE"
>>> discrete_label("CCCCN(CCO)CCC(=O)c1ccc(Oc2ccccc2)cc1")
"TRUE"
>>> discrete_label("CN1CCN(CCC(=O)c2ccc(Br)s2)CC1")
"FALSE"

In plain terms: is recorded inhibition at 30 µM at least 20% for `O=C(CCN(c1ccccc1)c1ccccc1)c1ccccn1` ? FALSE

Check the entry `CN(CCO)CCC(=O)c1cccnc1` : does inhibition at 30 µM equal or exceed 20%? FALSE

Threshold query (inhibition at 30 µM >= 20%) on `CC(=O)CCN(CCO)C(C)C` FALSE

Threshold query (inhibition at 30 µM >= 20%) on `CCc1nccnc1C(=O)CCN(Cc1ccccc1)C(C)(C)C` TRUE

Reported inhibition at 30 µM reaches at least 20% for CC(CN(C)CCO)C(=O)c1ccc(F)cc1 (stereo not drawn) ? FALSE

Evaluate `C=CCC(=O)c1ccc2ccccc2c1` : inhibition at 30 µM at minimum 20%? FALSE

Does the molecule O=C(CCNCC(O)c1ccccc1)c1ccc(Oc2ccccc2)cc1 (stereo not drawn) have recorded inhibition at 30 µM that is 20% or more? FALSE

Please indicate if the recorded inhibition at 30 µM for `CCN(CCC(=O)c1ccc(C)o1)Cc1ccccc1` meets or exceeds 20%. TRUE

Kindly determine if inhibition at 30 µM recorded for `Cc1cccc2cc(C(=O)CCN(Cc3ccccc3)C(C)C)ccc12` is above or exactly 20%. TRUE

Decide: inhibition at 30 µM of `Cc1ccc(C(=O)CCN(Cc2ccccc2)C(C)(C)C)o1` >= 20%? TRUE

Answer whether inhibition at 30 µM of `CC(C)(C)N(CCO)CCC(=O)c1cccnc1` is greater than or equal to 20%. FALSE

API: above_or_equal(metric=inhibition at 30 µM, cutoff=20%) for item `CN(CCO)CCC(=O)c1cccn1C` FALSE
